So I've got a bunch of compounds here, and I need their PDI values.
assay: LNP average particle size and polydispersity by dynamic light scattering; assay type: physicochemical; settings: LNP with the compound as amine lipid; Expt. 6; composition ratio (mol %) 50/9/38/3 for Cmpnd 49, 50/10/38.5/1.5 for the others
Just the number, please, no unit after it.

I would be grateful if you could share the reported PDI for CCCCC/C=C\C/C=C\CCCCCCCC(=O)OCC(COC(=O)CCCCCCC/C=C\C/C=C\CCCCC)OC(=O)CCC(CCCCCCCC)OC(=O)NCCN(C)CC (stereo not drawn) .
0.03

I would be grateful if you could share the reported PDI for CCCCC/C=C\C/C=C\CCCCCCCC(=O)OCC(COC(=O)CCC(OCCCCCCCC)OCCCCCCCC)COC(=O)OCCCN(CC)CC (stereo not drawn) [Compound 49, reference compound] .
0.02

I would be grateful if you could share the reported PDI for CCCCC/C=C\C/C=C\CCCCCCCC(=O)OCC(COC(=O)CCCCCCC/C=C\C/C=C\CCCCC)OC(=O)CC[C@@H](CCCCCCCC)OC(=O)NCCN(C)CC .
0.06

I would be grateful if you could share the reported PDI for CCCCC/C=C\C/C=C\CCCCCCCC(=O)OCC(COC(=O)CCCCCCC/C=C\C/C=C\CCCCC)OC(=O)CCC(CC(CC)CC)OC(=O)NCCN(C)CC (stereo not drawn) .
0.01

I would be grateful if you could share the reported PDI for CCCCC/C=C\C/C=C\CCCCCCCC(=O)OCC(COC(=O)CCCCCCC/C=C\C/C=C\CCCCC)OC(=O)CC[C@H](CCCCCCCC)OC(=O)NCCN(C)CC .
0.02

I would be grateful if you could share the reported PDI for CCCCC/C=C\C/C=C\CCCCCCCC(=O)OCC(COC(=O)CCCCCCC/C=C\C/C=C\CCCCC)OC(=O)C1(C(CCCCCCCC)OC(=O)NCCN(C)CC)CC1 (stereo not drawn) .
0.04

###

assay: pKa of amine lipid by TNS fluorescence; type: physicochemical; details: probe TNS (6-(p-toluidino)-2-naphthalenesulfonic acid sodium salt), unformulated amine lipid in ethanol, sodium phosphate buffers -9.0
// label = fulfilled if pKa is not less than 7, otherwise not fulfilled

// inclusive: pKa at least 7? input: CCCCC/C=C\C/C=C\CCCCCCCC(=O)OCC(COC(=O)CCCCCCC/C=C\C/C=C\CCCCC)OC(=O)CCC(CCCCCCCCCCCC)OC(=O)NCCN(CC)CC (stereo not drawn) [Compound 15]
not fulfilled

// inclusive: pKa at least 7? input: CCCCC/C=C\C/C=C\CCCCCCCC(=O)OCC(COC(=O)CCCCCCC/C=C\C/C=C\CCCCC)OC(=O)CCC(OC(=O)NCCN(C)CC)C1CCCCC1 (stereo not drawn) [Compound 41]
not fulfilled

// inclusive: pKa at least 7? input: CCCCC/C=C\C/C=C\CCCCCCCC(=O)OCC(COC(=O)CCCCCCC/C=C\C/C=C\CCCCC)OC(=O)CCC(CCCCCC)OC(=O)NCCN1CCC1 (stereo not drawn) [Compound 77]
fulfilled

###

So I've got a bunch of compounds here, and I need their Z-Ave Size (nm) values.
assay: LNP average particle size and polydispersity by dynamic light scattering; type: physicochemical; details: LNP with the compound as amine lipid; Expt. 9; composition ratio (mol %) 50/9/38/3 for Cmpnd 49, 50/10/38.5/1.5 for the others
API: value field is a number in nm; no unit string.

I would be grateful if you could share the reported Z-Ave Size (nm) for CCCCC/C=C\C/C=C\CCCCCCCC(=O)OCC(COC(=O)CCCCCCC/C=C\C/C=C\CCCCC)OC(=O)CCC(CC(CC)CC)OC(=O)NCCN1CCCC1 (stereo not drawn) .
91

I would be grateful if you could share the reported Z-Ave Size (nm) for CCCCC/C=C\C/C=C\CCCCCCCC(=O)OCC(COC(=O)CCCCCCC/C=C\C/C=C\CCCCC)OC(=O)CCC(CC/C=C\CCCCC)OC(=O)NCCN(C)CC (stereo not drawn) .
89

I would be grateful if you could share the reported Z-Ave Size (nm) for CCCCC/C=C\C/C=C\CCCCCCCC(=O)OCC(COC(=O)CCCCCCC/C=C\C/C=C\CCCCC)OC(=O)CC[C@@H](CCCCCC)OC(=O)NCCN1CCCC1 .
99

I would be grateful if you could share the reported Z-Ave Size (nm) for CCCCC/C=C\C/C=C\CCCCCCCC(=O)OCC(COC(=O)CCCCCCC/C=C\C/C=C\CCCCC)OC(=O)CC[C@H](CCCCCC)OC(=O)NCCN1CCCC1 .
88

I would be grateful if you could share the reported Z-Ave Size (nm) for CCCCC/C=C\C/C=C\CCCCCCCC(=O)OCC(COC(=O)CCC(OCCCCCCCC)OCCCCCCCC)COC(=O)OCCCN(CC)CC (stereo not drawn) [Compound 49, reference compound] .
87

I would be grateful if you could share the reported Z-Ave Size (nm) for CCCCC/C=C\C/C=C\CCCCCCCC(=O)OCC(COC(=O)CCCCCCC/C=C\C/C=C\CCCCC)OC(=O)CCC(CC/C=C\CCCCC)OC(=O)NCCN1CCCC1 (stereo not drawn) .
89

I would be grateful if you could share the reported Z-Ave Size (nm) for CCCCC/C=C\C/C=C\CCCCCCCC(=O)OCC(COC(=O)CCCCCCC/C=C\C/C=C\CCCCC)OC(=O)CCC(CCC(C)CCCC(C)C)OC(=O)NCCN1CCCC1 (stereo not drawn) .
80

I would be grateful if you could share the reported Z-Ave Size (nm) for CCCCC/C=C\C/C=C\CCCCCCCC(=O)OCC(COC(=O)CCCCCCC/C=C\C/C=C\CCCCC)COC(=O)C(C)(C)C(CCCCCC)OC(=O)NCCN1CCCC1 (stereo not drawn) .
102

I would be grateful if you could share the reported Z-Ave Size (nm) for CCCCC/C=C\C/C=C\CCCCCCCC(=O)OCC(COC(=O)CCCCCCC/C=C\C/C=C\CCCCC)OC(=O)CCC(CCCCCC)OC(=O)NCCN1CCCC1 (racemic) .
98
